Readings of IC50 for the listed molecules
- System: Malate dehydrogenase, mitochondrial (Sus scrofa)
- Sequence (P00346 whole entry): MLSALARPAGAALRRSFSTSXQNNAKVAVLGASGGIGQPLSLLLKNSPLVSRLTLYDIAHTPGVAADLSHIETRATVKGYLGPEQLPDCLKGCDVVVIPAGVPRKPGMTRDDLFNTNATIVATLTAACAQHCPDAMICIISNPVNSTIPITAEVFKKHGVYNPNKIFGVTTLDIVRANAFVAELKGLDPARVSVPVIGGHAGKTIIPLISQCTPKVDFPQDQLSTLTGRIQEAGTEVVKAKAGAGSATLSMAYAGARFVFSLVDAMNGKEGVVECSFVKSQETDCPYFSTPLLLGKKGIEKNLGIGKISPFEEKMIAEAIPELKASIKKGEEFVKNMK
- Procedure Text: Inhibition of refolded pig heart mitochondrial MDH preincubated with Escherichia coli GroEL/GroES for 45 mins using sodium mesoxalate as substrate followed by compound addition and measured after 20 to 30 mins by spectrometric analysis
Outcome Measure: IC50

Structure String | Result
O=S(=O)(Nc1ccc2oc(-c3ccccc3)nc2c1)c1ccccc1Cl | > 63 µM
O=S(=O)(Nc1ccc2oc(-c3ccccc3)nc2c1)c1ccc(O)cc1 | > 63 µM
COc1ccc(Cl)cc1S(=O)(=O)Nc1ccc2oc(-c3ccccc3)nc2c1 | > 63 µM
O=S(=O)(Nc1ccc2oc(-c3ccccc3)nc2c1)c1ccc(F)c(C(F)(F)F)c1 | > 63 µM
O=S(=O)(Nc1ccc(-c2nc3ccccc3o2)cc1)c1ccc(F)cc1 | > 63 µM
O=S(=O)(Nc1ccc2oc(-c3ccccc3)nc2c1)c1ccc(Cl)s1 | > 63 µM
O=S(=O)(Nc1ccc(-c2nc3ccccc3o2)cc1)c1ccccc1O | > 63 µM
O=S(=O)(Nc1ccc2oc(-c3ccccc3)nc2c1)c1cccc(O)c1 | > 63 µM
O=S(=O)(Nc1ccc(-c2nc3ccccc3o2)cc1)c1ccc(O)cc1 | > 63 µM
O=S(=O)(Nc1ccc2oc(-c3ccccc3)nc2c1)c1cccc(Cl)c1 | > 63 µM
CS(=O)(=O)Nc1ccc(-c2nc3ccccc3o2)cc1 | > 63 µM
C=Cc1ccc(S(=O)(=O)Nc2ccc(-c3nc4ccccc4o3)cc2)cc1 | > 63 µM
COc1cccc(S(=O)(=O)Nc2ccc3oc(-c4ccccc4)nc3c2)c1 | > 63 µM
Cc1ccc(S(=O)(=O)Nc2ccc(-c3nc4ccccc4o3)cc2)cc1 | > 63 µM
O=[N+]([O-])c1cc(S(=O)(=O)Nc2ccc3oc(-c4ccccc4)nc3c2)ccc1Cl | > 63 µM
O=S(=O)(Nc1ccc(-c2nc3ccccc3o2)cc1)c1ccccc1 | > 63 µM
O=S(=O)(Nc1ccc2oc(-c3ccccc3)nc2c1)c1ccc(Cl)c(Cl)c1 | > 63 µM
COc1ccc(S(=O)(=O)Nc2ccc(-c3nc4ccccc4o3)cc2)cc1 | > 63 µM
O=S(=O)(Nc1ccc(-c2nc3ccccc3o2)cc1)c1ccc(Cl)s1 | > 63 µM
O=S(=O)(Nc1ccc(-c2nc3ccccc3o2)cc1)c1ccc(C(F)(F)F)cc1 | > 63 µM
O=S(=O)(Nc1ccc2oc(-c3ccccc3)nc2c1)c1cccc(C(F)(F)F)c1 | > 63 µM

* * *

- System: Phosphotyrosine protein phosphatase (Mycobacterium tuberculosis, UniProt A0A045ISB3)
- Sequence (A0A045ISB3 whole entry): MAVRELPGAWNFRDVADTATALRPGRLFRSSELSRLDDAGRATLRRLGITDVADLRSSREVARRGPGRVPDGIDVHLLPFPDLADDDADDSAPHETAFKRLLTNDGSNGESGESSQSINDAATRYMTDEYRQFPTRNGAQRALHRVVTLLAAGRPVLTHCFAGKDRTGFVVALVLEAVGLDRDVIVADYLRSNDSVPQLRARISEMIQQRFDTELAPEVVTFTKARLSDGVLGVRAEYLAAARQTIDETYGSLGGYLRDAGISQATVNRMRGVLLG
pIC50: −log10 of the molar value.
Note to self: values exactly at 5 are fulfilled. So pIC50 at or above 5 is fulfilled, below is not fulfilled.

Structure String | Label Class
C=Cc1ccc(S(=O)(=O)Nc2ccc3oc(-c4ccccc4)nc3c2)cc1 | not fulfilled
NCc1ccc(S(=O)(=O)Nc2ccc3oc(-c4ccc(NS(=O)(=O)c5ccc(Cl)s5)cc4)nc3c2)cc1 | fulfilled
O=S(=O)(Nc1ccc(-c2nc3ccccc3o2)cc1)c1cccc(O)c1 | not fulfilled
Cc1ccccc1S(=O)(=O)Nc1ccc(-c2nc3cc(NS(=O)(=O)c4ccccc4C)ccc3o2)cc1 | fulfilled
Cc1ccc(S(=O)(=O)Nc2ccc(-c3nc4ccccc4o3)cc2)cc1 | not fulfilled
O=[N+]([O-])c1cc(S(=O)(=O)Nc2ccc(-c3nc4cc(NS(=O)(=O)c5ccc(Cl)s5)ccc4o3)cc2)ccc1Cl | fulfilled
C=Cc1ccc(S(=O)(=O)Nc2ccc(-c3nc4cc(NS(=O)(=O)c5ccc(Cl)s5)ccc4o3)cc2)cc1 | fulfilled
COc1ccc(Cl)cc1S(=O)(=O)Nc1ccc2oc(-c3ccc(NS(=O)(=O)c4ccc(Cl)s4)cc3)nc2c1 | fulfilled
O=S(=O)(Nc1ccc2oc(-c3ccc(NS(=O)(=O)c4ccc(Cl)s4)cc3)nc2c1)c1ccc(Br)cc1 | fulfilled

Source: ChEMBL document CHEMBL4387722
